molecular target: KRAS WT-cRAF (Homo sapiens, UniProt P01116+P62937); experiment: Assay for binding of KRAS to cRAF (HTRF, with Cyclophilin A), KRAS WT; details: KRAS WT-cRAF binding assay(nM), GPPNP-KRAS WT, IC50 values
Sequence (P01116 1-188 isoform P01116-2): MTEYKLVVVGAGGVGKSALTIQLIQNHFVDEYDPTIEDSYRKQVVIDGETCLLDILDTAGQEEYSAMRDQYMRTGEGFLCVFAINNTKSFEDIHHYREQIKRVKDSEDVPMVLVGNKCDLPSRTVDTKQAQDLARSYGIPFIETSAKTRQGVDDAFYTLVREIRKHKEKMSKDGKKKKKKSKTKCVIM
Sequence (P62937 whole entry): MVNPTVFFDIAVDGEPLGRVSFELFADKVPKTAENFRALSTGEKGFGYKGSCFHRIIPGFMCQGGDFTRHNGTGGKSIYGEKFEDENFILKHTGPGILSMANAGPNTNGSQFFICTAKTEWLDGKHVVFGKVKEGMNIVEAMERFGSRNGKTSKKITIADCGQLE

MOLECULE: CCn1c(-c2cc(C#CCN3CCS(=O)(=O)CC3)cnc2C(C)OC)c2c3cc(ccc31)-c1cc(N)cc(c1)CC(NC(=O)C1C(C)C1C)C(=O)N1CCCC(N1)C(=O)OCC(C)(C)C2 (atropisomer, axis not shown; (Ra))
UNIT_STRING: nM
IC50: 47.5

MOLECULE: CCn1c(-c2cc(C#CCN3CCN(C(=O)CO)CC3)c[n+]([O-])c2C(C)OC)c2c3cc(ccc31)-c1csc(n1)CC(NC(=O)C1C(C)C1C)C(=O)N1CCCC(N1)C(=O)OCC(C)(C)C2 (atropisomer, axis not shown; (Ra))
UNIT_STRING: nM
IC50: 31.3

MOLECULE: CCn1c(-c2cc(C#CCN3CCN(C(=O)CO)CC3)cnc2C(C)OC)c2c3cc(ccc31)-c1csc(n1)CC(NC(=O)C1C(C)C1C)C(=O)N1CCCC(N1)C(=O)OCC(C)(C)C2 (atropisomer, axis not shown; (Ra))
UNIT_STRING: nM
IC50: 19.2

MOLECULE: CCn1c(-c2cc(C#CCN3CCN(C(=O)CO)CC3)cnc2C(C)OC)c2c3cc(ccc31)-c1coc(n1)CC(NC(=O)C1C3COCC31)C(=O)N1CCCC(N1)C(=O)OCC(C)(C)C2 (atropisomer, axis not shown; (Ra))
UNIT_STRING: nM
IC50: 25.2

----------
system: AsPC-1 p-ERK; test: Cell p-ERK assay (HTRF), AsPC-1 cells; type: cell-based, human; details: Homo sapiens, ASPC1, 3 h, read-out: AsPC-1 p-ERK IC50(nM)
Returns: string. Value is yes if measured IC50 is below 0.4 nM, and no if it is greater than or equal to it.

COMPOUND: CO[C@@H](C)c1ncc(C#CCN2CCS(=O)(=O)CC2)cc1-c1c2c3cc(ccc3n1CCCO)-c1csc(n1)C[C@H](NC(=O)[C@H]1[C@@H]3COC[C@@H]31)C(=O)N1CCC[C@H](N1)C(=O)OCC(C)(C)C2 (atropisomer, axis not shown; (Ra))
TESTED_ON: AsPC-1 p-ERK
CATEGORY_LABEL: no
--
COMPOUND: CCn1c(-c2cc(C#CCN3CCS(=O)(=O)CC3)cnc2[C@H](C)NC)c2c3cc(ccc31)-c1csc(n1)C[C@H](NC(=O)[C@H]1[C@H](C)[C@@H]1C)C(=O)N1CCC[C@H](N1)C(=O)OCC(C)(C)C2 (atropisomer, axis not shown; (Ra))
TESTED_ON: AsPC-1 p-ERK
CATEGORY_LABEL: yes
--
COMPOUND: CCn1c(-c2cc(C#CCN3CCN(C(=O)CNC)CC3)cnc2[C@H](C)OC)c2c3cc(ccc31)-c1csc(n1)C[C@H](NC(=O)[C@H]1[C@@H]3COC[C@@H]31)C(=O)N1CCC[C@H](N1)C(=O)OCC(C)(C)C2 (atropisomer, axis not shown; (Ra))
TESTED_ON: AsPC-1 p-ERK
CATEGORY_LABEL: no
--
COMPOUND: CCn1c(-c2cc(C#CCN3CCCOCC3)cnc2[C@H](C)OC)c2c3cc(ccc31)-c1csc(n1)C[C@H](NC1=NOC(C)(C)C1)C(=O)N1CCC[C@H](N1)C(=O)OCC(C)(C)C2 (atropisomer, axis not shown; (Ra))
TESTED_ON: AsPC-1 p-ERK
CATEGORY_LABEL: no
--
COMPOUND: CCn1c(-c2cc(C#CCN3CCS(=O)(=O)CC3)cnc2[C@H](C)OC)c2c3cc(ccc31)-c1csc(n1)[C@@H](N)[C@H](NC(=O)[C@H]1[C@H](C)[C@@H]1C)C(=O)N1CCC[C@H](N1)C(=O)OCC(C)(C)C2 (atropisomer, axis not shown; (Ra))
TESTED_ON: AsPC-1 p-ERK
CATEGORY_LABEL: yes
--
COMPOUND: CCn1c(-c2cc(C#CCN3CCCN(C(=O)CO)CC3)cnc2[C@H](C)OC)c2c3cc(ccc31)-c1csc(n1)C[C@H](NC(=O)[C@H]1[C@H](C)[C@@H]1C)C(=O)N1CCC[C@H](N1)C(=O)OCC(C)(C)C2 (atropisomer, axis not shown; (Ra))
TESTED_ON: AsPC-1 p-ERK
CATEGORY_LABEL: yes
--
COMPOUND: CCn1c(-c2cc(C#CCN3CCS(=O)(=O)CC3)cnc2[C@H](C)OC)c2c3cc(ccc31)-c1csc(n1)C[C@H](NC(=O)[C@@H]1[C@@H](C)[C@H]1CO)C(=O)N1CCC[C@H](N1)C(=O)OCC(C)(C)C2 (atropisomer, axis not shown; (Ra))
TESTED_ON: AsPC-1 p-ERK
CATEGORY_LABEL: no
--
COMPOUND: CCn1c(-c2cc(C#CCN3CCS(=O)(=O)CC3)cnc2[C@H](C)OC)c2c3cc(ccc31)-c1csc(n1)C[C@H](NC(=O)[C@@H](NC)C1CCCC1)C(=O)N1CCC[C@H](N1)C(=O)OCC(C)(C)C2 (atropisomer, axis not shown; (Ra))
TESTED_ON: AsPC-1 p-ERK
CATEGORY_LABEL: no
--
COMPOUND: CCn1c(-c2cc(C#CCN3CCC(C#N)(CO)CC3)cnc2[C@H](C)OC)c2c3cc(ccc31)-c1csc(n1)C[C@H](NC(=O)[C@H]1[C@H](C)[C@@H]1C)C(=O)N1CCC[C@H](N1)C(=O)OCC(C)(C)C2 (atropisomer, axis not shown; (Ra))
TESTED_ON: AsPC-1 p-ERK
CATEGORY_LABEL: yes
--
COMPOUND: CCn1c(-c2cc(C#CCN3CCCOCC3)cnc2[C@H](C)OC)c2c3cc(ccc31)-c1csc(n1)C[C@H](NC1=NOC3(CCOCC3)C1)C(=O)N1CCC[C@H](N1)C(=O)OCC(C)(C)C2 (atropisomer, axis not shown)
TESTED_ON: AsPC-1 p-ERK
CATEGORY_LABEL: no
--
COMPOUND: CCn1c(-c2cc(C#CCN3CCCOCC3)cnc2[C@H](C)OC)c2c3cc(ccc31)-c1csc(n1)C[C@H](NC1=NOC(CC)(CC)C1)C(=O)N1CCC[C@H](N1)C(=O)OCC(C)(C)C2 (atropisomer, axis not shown; (Ra))
TESTED_ON: AsPC-1 p-ERK
CATEGORY_LABEL: no
--
COMPOUND: CCn1c(-c2cc(C#CCN3CCN(C)CC3)cnc2[C@H](C)OC)c2c3cc(ccc31)-c1csc(n1)C[C@H](NC(=O)[C@H]1[C@@H]3COC[C@@H]31)C(=O)N1CCC[C@H](N1)C(=O)OCC(C)(C)C2 (atropisomer, axis not shown; (Ra))
TESTED_ON: AsPC-1 p-ERK
CATEGORY_LABEL: no
--
COMPOUND: COCCn1c(-c2cc(C#CCN3CCC(C#N)(CO)CC3)cnc2[C@H](C)OC)c2c3cc(ccc31)-c1csc(n1)C[C@H](NC(=O)[C@H]1[C@@H]3COC[C@@H]31)C(=O)N1CCC[C@H](N1)C(=O)OCC(C)(C)C2 (atropisomer, axis not shown)
TESTED_ON: AsPC-1 p-ERK
CATEGORY_LABEL: no
--
COMPOUND: CCn1c(-c2cc(C#CCN3CCC(C#N)(CO)CC3)cnc2[C@H](C)OC)c2c3cc(ccc31)-c1csc(n1)C[C@H](NC(=O)[C@H]1[C@@H]3COC[C@@H]31)C(=O)N1CCC[C@H](N1)C(=O)OCC(C)(C)C2 (atropisomer, axis not shown; (Ra))
TESTED_ON: AsPC-1 p-ERK
CATEGORY_LABEL: yes
